B1: WDFY2 (parent)
chain: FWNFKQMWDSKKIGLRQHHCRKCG

- Variants of: B1
- experimentNotes: protein stability index of a GFP-peptide fusion (GPS, HEK-293T) (PSI 1-6); higher = more stable;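 also: lentivirally expressed fusions sorted by FACS into six bins by GFP to DsRed ratio, PSI derived from sequencing read proportions per bin multiplied by bin number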
- protocolConditions: c terminus: a fixed tail appended
recordedEndpoint: protein stability index

>  <mutantId>
H18F

>  <protein stability index>
1.51

$$$$
>  <mutantId>
R16Y

>  <protein stability index>
1.85

$$$$
>  <mutantId>
W8L

>  <protein stability index>
2.59

$$$$
>  <mutantId>
Q6M

>  <protein stability index>
1.93

$$$$
>  <mutantId>
C23I

>  <protein stability index>
2.48

$$$$
>  <mutantId>
S10M

>  <protein stability index>
1.76

$$$$
>  <mutantId>
L15N

>  <protein stability index>
2.11

$$$$
>  <mutantId>
F4R

>  <protein stability index>
2.33

$$$$
>  <mutantId>
H18T

>  <protein stability index>
1.56

$$$$
>  <mutantId>
C20R

>  <protein stability index>
2.37

$$$$

Challenge: Fill blank: measured protein stability index of the variant N3M is ____.
Response given: 1.35

Challenge: Thanks! And F4I ?
Response given: 1.51
